Molecular target: eGFP-53BP1 (Homo sapiens, UniProt Q12888)
Sequence (Q12888 whole entry): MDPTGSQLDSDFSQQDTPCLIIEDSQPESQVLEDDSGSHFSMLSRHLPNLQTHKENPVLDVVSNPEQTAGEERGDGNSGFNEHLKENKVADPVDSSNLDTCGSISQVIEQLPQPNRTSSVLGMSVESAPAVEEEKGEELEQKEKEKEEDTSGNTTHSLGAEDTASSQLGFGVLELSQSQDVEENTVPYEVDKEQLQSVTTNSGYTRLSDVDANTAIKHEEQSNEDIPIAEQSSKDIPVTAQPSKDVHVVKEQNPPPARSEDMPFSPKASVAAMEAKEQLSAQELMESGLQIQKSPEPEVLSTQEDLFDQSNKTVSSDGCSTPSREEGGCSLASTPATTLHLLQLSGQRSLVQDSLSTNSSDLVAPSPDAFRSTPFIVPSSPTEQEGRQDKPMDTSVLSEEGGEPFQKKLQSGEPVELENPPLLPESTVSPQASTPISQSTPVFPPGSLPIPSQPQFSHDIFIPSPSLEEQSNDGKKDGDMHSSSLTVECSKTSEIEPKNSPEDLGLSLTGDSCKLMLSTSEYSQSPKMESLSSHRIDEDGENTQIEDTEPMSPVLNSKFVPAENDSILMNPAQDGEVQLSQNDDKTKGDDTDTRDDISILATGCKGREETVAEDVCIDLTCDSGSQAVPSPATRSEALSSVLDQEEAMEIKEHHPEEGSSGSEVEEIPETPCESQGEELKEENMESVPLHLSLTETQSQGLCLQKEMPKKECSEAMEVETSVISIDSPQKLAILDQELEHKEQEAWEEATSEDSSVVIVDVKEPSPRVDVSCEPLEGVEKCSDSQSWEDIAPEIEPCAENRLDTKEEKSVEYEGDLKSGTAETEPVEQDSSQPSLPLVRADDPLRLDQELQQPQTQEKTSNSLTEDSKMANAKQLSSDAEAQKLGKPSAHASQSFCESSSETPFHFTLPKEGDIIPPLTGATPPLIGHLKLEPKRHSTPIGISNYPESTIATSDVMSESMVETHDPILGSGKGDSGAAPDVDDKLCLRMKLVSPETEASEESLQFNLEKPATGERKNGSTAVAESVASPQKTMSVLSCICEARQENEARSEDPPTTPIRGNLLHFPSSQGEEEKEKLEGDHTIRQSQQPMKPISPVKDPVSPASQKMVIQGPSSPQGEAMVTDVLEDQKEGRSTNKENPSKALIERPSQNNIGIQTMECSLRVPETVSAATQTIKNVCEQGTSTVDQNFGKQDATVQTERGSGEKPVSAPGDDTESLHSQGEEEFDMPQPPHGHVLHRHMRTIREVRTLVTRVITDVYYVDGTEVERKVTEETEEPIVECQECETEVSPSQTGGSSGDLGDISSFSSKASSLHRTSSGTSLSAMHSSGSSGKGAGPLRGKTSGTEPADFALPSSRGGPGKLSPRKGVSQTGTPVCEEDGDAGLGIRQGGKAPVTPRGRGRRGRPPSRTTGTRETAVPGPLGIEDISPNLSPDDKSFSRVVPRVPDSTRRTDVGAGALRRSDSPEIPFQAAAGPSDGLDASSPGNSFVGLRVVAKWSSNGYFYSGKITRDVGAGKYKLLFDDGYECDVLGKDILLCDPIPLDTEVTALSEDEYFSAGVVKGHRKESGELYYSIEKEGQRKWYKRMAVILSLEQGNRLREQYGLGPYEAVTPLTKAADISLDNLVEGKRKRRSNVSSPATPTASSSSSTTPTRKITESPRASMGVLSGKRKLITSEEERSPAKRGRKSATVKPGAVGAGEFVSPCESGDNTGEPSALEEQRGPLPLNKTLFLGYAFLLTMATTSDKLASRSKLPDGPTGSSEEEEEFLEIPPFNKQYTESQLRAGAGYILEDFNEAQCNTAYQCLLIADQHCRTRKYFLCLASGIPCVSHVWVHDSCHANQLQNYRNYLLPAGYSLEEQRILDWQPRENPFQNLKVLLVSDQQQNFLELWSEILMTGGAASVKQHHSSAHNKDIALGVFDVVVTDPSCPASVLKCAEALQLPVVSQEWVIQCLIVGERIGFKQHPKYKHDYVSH
Test: eGFP-53BP1 foci count per nucleus by confocal microscopy, DIvA cells
READOUT TYPE: IC50
Provide a numeric answer, followed by its unit.

IC50 for CCN1CCN(C(=O)c2ccc(Cn3nc(C)cc3C)cc2)CC1 is 13 µM

* * *

Molecular target: 53BP1 TTD (tandem tudor domain) (Homo sapiens, UniProt Q12888)
Sequence (Q12888 1483-1606): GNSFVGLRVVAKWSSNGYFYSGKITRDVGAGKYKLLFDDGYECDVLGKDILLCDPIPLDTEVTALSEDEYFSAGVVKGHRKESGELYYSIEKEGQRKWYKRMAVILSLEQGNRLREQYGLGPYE
READOUT TYPE: Kd (µM)
State just the number; it will be interpreted in µM.

Case CCN1CCN(C(=O)c2ccc(Cn3nc(C)cc3C)cc2)CC1 , 53BP1 TTD (tandem tudor domain) (Homo sapiens, UniProt Q12888), Kd recorded as 14
